# system.tested: SyPyk2 (Synechocystis pyruvate kinase 2) (Synechocystis sp. PCC 6803, UniProt P73534)
# Construct: synthesized gene in pGEX6P-1 (BamHI-XhoI), GST fusion from E. coli BL21, GST tag cut by PreScission protease; untagged 63 kDa
# Sequence (P73534 1-591): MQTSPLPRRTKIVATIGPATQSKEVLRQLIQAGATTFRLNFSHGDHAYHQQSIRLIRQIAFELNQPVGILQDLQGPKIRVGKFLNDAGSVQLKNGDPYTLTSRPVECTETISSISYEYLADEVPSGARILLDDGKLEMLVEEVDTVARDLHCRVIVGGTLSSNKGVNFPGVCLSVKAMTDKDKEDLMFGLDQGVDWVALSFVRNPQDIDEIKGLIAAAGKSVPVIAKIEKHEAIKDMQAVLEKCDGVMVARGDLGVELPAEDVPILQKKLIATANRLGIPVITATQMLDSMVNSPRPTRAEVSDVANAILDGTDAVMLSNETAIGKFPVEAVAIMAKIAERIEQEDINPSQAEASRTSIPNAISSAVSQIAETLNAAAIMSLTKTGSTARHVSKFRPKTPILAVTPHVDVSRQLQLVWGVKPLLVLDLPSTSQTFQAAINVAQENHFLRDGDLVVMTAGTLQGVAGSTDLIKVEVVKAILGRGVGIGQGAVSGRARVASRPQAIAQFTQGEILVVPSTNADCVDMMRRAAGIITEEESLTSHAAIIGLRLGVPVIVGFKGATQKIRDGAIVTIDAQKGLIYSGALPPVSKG
# test.description: LDH-coupled assay, NADH oxidation at […] nm
measurement.label: pIC50
Expect pIC50 as a plain number equal to -log10 of the molar concentration.

Prompt: Output reported pIC50 of the molecule Nc1ncnc2c1ncn2[C@@H]1O[C@H](COP(=O)(O)OP(=O)(O)OP(=O)(O)O)[C@@H](O)[C@H]1O [ATP, adenosine triphosphate] on SyPyk2 (Synechocystis pyruvate kinase 2) (Synechocystis sp. PCC 6803, UniProt P73534).
Response: 2.39
